system: L1210 leukemia ip in BDF1 mice, survival T/C; experiment: NCI In Vivo Anticancer Drug Screen. Data for tumor model L1210 Leukemia (intraperitoneal) in B6D2F1 (BDF1) mice; details: endpoint: mean survival time; dose: 50.0 mg/kg/injection; schedule: Q04DX003 (ip); vehicle: Klucel (hydroxypropylcellulose) (HPC)
Inconclusive results and toxic doses are left out. No stated cut-off is given here; in the data, active means T/C of 150% or more; inactive means T/C below 125%.
Outcome (select one): active, inactive

Qu. Any idea what this test logged for O=C1OC2(Cc3ccccc31)c1ccccc1-c1ccccc12 ?
Ans. inactive

Qu. Any idea what this test logged for CC1CN1C(=O)Nc1cccc2c(NC(=O)N3CC3C)cccc12 (configuration not stated) ?
Ans. active

Qu. Any idea what this test logged for NC1CCCCC1.[O]=[Cr](=[O])([OH])[OH] ?
Ans. inactive

Qu. Any idea what this test logged for Cc1ccccc1-n1c(C)cc(=O)c(C(=O)Cl)c1C ?
Ans. inactive

Qu. Any idea what this test logged for OCc1ccc(-c2ccccc2)cc1 ?
Ans. inactive

Qu. Any idea what this test logged for CC1(C)C(=O)N(Br)C(=O)N1Br ?
Ans. inactive

Qu. Any idea what this test logged for CC(C)N(C(=S)SC(=S)N(C(C)C)C(C)C)C(C)C ?
Ans. inactive

Cited source: PubChem BioAssay AID248
